Give Osmolality for every item shown.
- assay method text: Osmolality determination (FISKE osmometer)
- Assay type: physicochemical
- experimental setup: solutions containing 28% iodine; methylglucamine salts; extrapolation from successive dilutions
Numbers only, in mosm/kg.

[
  {
    "molecule": "CNC(=O)c1c(I)c(NC(C)=O)c(I)c(C(=O)NCC(=O)Nc2c(I)c(C(=O)O)c(I)c(N(C)C(C)=O)c2I)c1I",
    "scale unit": "mosm/kg",
    "Osmolality": 500
  },
  {
    "molecule": "CNC(=O)c1c(I)c(C(=O)O)c(I)c(N(C)C(=O)CN(CC(=O)Nc2c(I)c(C(=O)NCCO)c(I)c(C(=O)NCCO)c2I)CC(=O)Nc2c(I)c(C(=O)NCCO)c(I)c(C(=O)NCCO)c2I)c1I",
    "scale unit": "mosm/kg",
    "Osmolality": 370
  },
  {
    "molecule": "CNC(=O)c1c(I)c(C(=O)NCCCC(=O)Nc2c(I)c(C(=O)O)c(I)c(C(=O)NCCO)c2I)c(I)c(N(C)C(C)=O)c1I",
    "scale unit": "mosm/kg",
    "Osmolality": 575
  }
]

Parameters: items (list). Returns: Osmolality for each item.
1. CNC(=O)c1c(I)c(NC(C)=O)c(I)c(C(=O)NCC(=O)N(C)c2c(I)c(C(=O)O)c(I)c(C(=O)NC)c2I)c1I
2. CNC(=O)c1c(I)c(NC(C)=O)c(I)c(C(=O)O)c1I [a, reference compound]
3. CNC(=O)c1c(I)c(NC(=O)CCCNC(=O)c2c(I)cc(I)c(N(C)C(C)=O)c2I)c(I)c(C(=O)O)c1I

1. 600
2. 1410
3. 390

* * *

- assay method text: Osmolality determination (FISKE osmometer)
- Type: physicochemical
- experimental setup: solutions containing 28% iodine; methylglucamine salts; extrapolation from successive dilutions
- Description: Osmolality is determined by extrapolation of the values obtained on successive dilutions of solutions containing 28% or 38% iodine. Osmolality readings are made with a FISKE Model 230/D/330 D osmometer. This apparatus indicates this measurement as milliosmoles per kg of solution. Its operation is based on the principles of cryoscopy. The determinations were made with solutions containing 28% iodine.
Note that class boundaries on Osmolality are low-valued = under 500 mosm/kg, mid-valued = from 500 mosm/kg up to 600 mosm/kg, high-valued = 600 mosm/kg and over

[
  {
    "compound": "CC(=O)Nc1c(I)c(NC(=O)CNC(=O)c2c(I)c(NC(C)=O)c(I)c(N(C)C(C)=O)c2I)c(I)c(C(=O)O)c1I",
    "class": "high-valued"
  }
]

// return the class label for `CNC(=O)c1c(I)c(NC(C)=O)c(I)c(C(=O)NCC(=O)Nc2c(I)c(C(=O)O)c(I)c(C(=O)NCCO)c2I)c1I`
mid-valued

For `CNC(=O)c1c(I)c(NC(C)=O)c(I)c(C(=O)NCC(=O)N(C)c2c(I)cc(I)c(C(=O)O)c2I)c1I` then?
mid-valued

For `CNC(=O)c1c(I)c(NC(=O)CNC(=O)c2c(I)c(C(=O)NCCO)c(I)c(N(C)C(C)=O)c2I)c(I)c(C(=O)O)c1I` then?
mid-valued

* * *

- assay method text: Osmolality determination (FISKE osmometer)
- Type: physicochemical
- experimental setup: solutions containing 28% iodine; methylglucamine salts; extrapolation from successive dilutions
- Experimental: Osmolality is determined by extrapolation of the values obtained on successive dilutions of solutions containing 28% or 38% iodine. Osmolality readings are made with a FISKE Model 230/D/330 D osmometer. This apparatus indicates this measurement as milliosmoles per kg of solution. Its operation is based on the principles of cryoscopy. The determinations were made with solutions containing 28% iodine.
property: Osmolality (mosm/kg)
Give bare numbers, in mosm/kg.

Examples with their reported Osmolality follow.
[
  {
    "given smiles": "CNC(=O)c1c(I)c(C(=O)NCC(=O)Nc2c(I)c(NC(C)=O)c(I)c(C(=O)O)c2I)c(I)c(N(C)C(C)=O)c1I",
    "property": "Osmolality",
    "quantitative result": 925
  },
  {
    "given smiles": "CNC(=O)c1c(I)c(C(=O)NCCCC(=O)N(C)c2c(I)c(C(=O)O)c(I)c(C(=O)NC)c2I)c(I)c(N(C)C(C)=O)c1I",
    "property": "Osmolality",
    "quantitative result": 730
  },
  {
    "given smiles": "CC(=O)Nc1c(I)c(C(=O)NCC(=O)Nc2c(I)c(C(=O)O)c(I)c(C(=O)NCCO)c2I)c(I)c(N(C)C(C)=O)c1I",
    "property": "Osmolality",
    "quantitative result": 480
  },
  {
    "given smiles": "CC(=O)N(C)c1c(I)c(NC(=O)CN(CC(=O)Nc2c(I)c(C(=O)NCCO)c(I)c(C(=O)NCCO)c2I)CC(=O)Nc2c(I)c(C(=O)NCCO)c(I)c(C(=O)NCCO)c2I)c(I)c(C(=O)O)c1I",
    "property": "Osmolality",
    "quantitative result": 270
  },
  {
    "given smiles": "CNC(=O)c1c(I)c(NC(=O)CCCNC(=O)c2c(I)c(C(=O)NC)c(I)c(N(C)C(C)=O)c2I)c(I)c(C(=O)O)c1I",
    "property": "Osmolality",
    "quantitative result": 475
  }
]

# context switch: different compound, same Osmolality
Reported Osmolality for `CNC(=O)c1c(I)c(NC(C)=O)c(I)c(C(=O)NCC(=O)N(C)c2c(I)c(C(=O)O)c(I)c(C(=O)NCCO)c2I)c1I` : what is it?
635

The reported measurements were obtained from patent US4094966A.
